Measured koff values are reported for all entries that follow.
measurementTarget: recombinant human PD-L1 (Sino Biological Inc.) (human, UniProt Q9NZQ7 19-239)
Sequence (Q9NZQ7 19-239 limits assumed): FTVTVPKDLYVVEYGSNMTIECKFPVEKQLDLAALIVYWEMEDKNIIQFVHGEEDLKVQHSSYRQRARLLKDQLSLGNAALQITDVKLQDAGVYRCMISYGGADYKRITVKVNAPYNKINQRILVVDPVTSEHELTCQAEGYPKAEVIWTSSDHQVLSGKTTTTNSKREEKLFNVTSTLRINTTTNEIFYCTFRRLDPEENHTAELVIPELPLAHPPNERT
procedureText: SPR, Biacore X100

- binder: "humanized anti-human PD-L1 monoclonal antibody VLS10-VHS7 P3 (antibody, human IgG1, kappa, V domains shown) VH: QVQLVQSGAEVKKPGSSVKVSCTASGFNIEDTYIHWVRQAPGQGLEWMGRIDPANANTKYDPKFQGRVTITADTSTNTAYMELSSLRSEDTAVYYCGRGLGAWFAYWGQGTLVTVSS VL: DIQMTQSPSSLSASVGDRVTITCKASQDVHTAVAWIHQKPGKAPKLLIYSASNRYTGVPSRFSGSGSGTDFTFTISSLQPEDIATYYCQQHYITPLTFGQGTKLEIKR"
  unitSpec: "s⁻¹"
  koff: 0.000747
- binder: "humanized anti-human PD-L1 monoclonal antibody VLS10-VHS7 P1 (antibody, human IgG1, kappa, V domains shown) VH: QVQLVQSGAEVKKPGSSVKVSCTASGFNIEDTYIHWVRQAPGQGLEWMGRIDPAQGNTKYDPKFQGRVTITADTSTNTAYMELSSLRSEDTAVYYCGRGLGAWFAYWGQGTLVTVSS VL: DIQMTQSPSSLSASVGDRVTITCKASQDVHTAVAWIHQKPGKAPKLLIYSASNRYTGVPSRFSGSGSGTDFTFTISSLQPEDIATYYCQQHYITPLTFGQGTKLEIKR"
  unitSpec: "s⁻¹"
  koff: 0.00108
- binder: "humanized anti-human PD-L1 monoclonal antibody VLS15-VHS12 (antibody, human IgG1, kappa, V domains shown) VH: EVQLVQSGAEVKKPGSSVKVSCKASGFNIEDTYIHWVRQAPGQGLEWMGRIDPANGNTKYDPKFQGRVTITADTSTNTAYMELSSLRSEDTAVYYCGRGLGAWFAYWGQGTLVTVSS VL: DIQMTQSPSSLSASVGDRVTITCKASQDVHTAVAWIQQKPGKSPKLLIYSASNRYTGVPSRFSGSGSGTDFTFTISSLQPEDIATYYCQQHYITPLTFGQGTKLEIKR"
  unitSpec: "s⁻¹"
  koff: 0.000477

Taken from patent US20240301068A1.
